- system_tested: Fes (UniProt P07332)
- Sequence (P07332 whole entry, looked up): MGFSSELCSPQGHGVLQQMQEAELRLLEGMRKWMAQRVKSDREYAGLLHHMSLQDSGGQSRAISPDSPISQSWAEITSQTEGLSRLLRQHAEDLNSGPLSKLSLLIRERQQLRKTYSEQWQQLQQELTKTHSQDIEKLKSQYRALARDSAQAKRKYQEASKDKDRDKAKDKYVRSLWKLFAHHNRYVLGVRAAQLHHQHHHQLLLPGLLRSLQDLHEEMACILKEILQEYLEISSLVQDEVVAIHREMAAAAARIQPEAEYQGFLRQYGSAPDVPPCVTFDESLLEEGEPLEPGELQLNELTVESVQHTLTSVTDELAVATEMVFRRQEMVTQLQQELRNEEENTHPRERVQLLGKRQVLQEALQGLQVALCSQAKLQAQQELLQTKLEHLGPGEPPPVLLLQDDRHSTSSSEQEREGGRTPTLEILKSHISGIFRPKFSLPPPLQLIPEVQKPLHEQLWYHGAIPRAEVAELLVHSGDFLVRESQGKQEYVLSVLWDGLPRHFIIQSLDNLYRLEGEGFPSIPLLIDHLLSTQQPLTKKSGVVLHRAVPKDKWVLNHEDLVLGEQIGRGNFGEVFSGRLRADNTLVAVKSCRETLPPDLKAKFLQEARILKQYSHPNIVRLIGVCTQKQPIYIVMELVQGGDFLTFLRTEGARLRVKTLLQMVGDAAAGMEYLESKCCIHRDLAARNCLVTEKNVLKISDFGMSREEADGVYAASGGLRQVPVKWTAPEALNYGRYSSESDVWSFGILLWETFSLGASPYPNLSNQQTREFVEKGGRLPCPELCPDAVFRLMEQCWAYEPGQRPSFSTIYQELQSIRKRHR
- test_name: phosphorylation enrichment, bacterial display (enrichment ratio); higher = better substrate or ligand; peptides without Tyr show the background;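 note: 11-residue human phosphosite peptides and single-mutation variants displayed on the E. coli surface, counted by deep sequencing, each peptide's frequency after selection divided by its frequency in the unselected input library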;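 note: frequency after pTyr selection over input frequency; kinase dosed for 20-30% of maximal phosphorylation in three min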
Below: a set of entries, each annotated with reported phosphorylation enrichment.
Give a plain numeric answer without units written out.

Example results:
Look up and state reported phosphorylation enrichment for TVLEPYTDPFF [ZC3H18_Y367_A368T_YF]
1.09

Specify phosphorylation enrichment for KDKLPYPFDDP [GPX2_Y125_YF] and stop.
1.01

Give me measured phosphorylation enrichment, please, for this sequence: RETLTYAQAQR [BRD1_Y33]
0.737

New cases:
Could you please provide reported phosphorylation enrichment for PEVRRYVLPLN [RPE65_Y368] ? Thanks!
1.45

Retrieve phosphorylation enrichment measured for QNTGNYYDLYG [PTPN11_Y62_D61N] and print it.
1.65

Supply reported phosphorylation enrichment belonging to this sequence: RIVEIYSRSLQ [GCH1_Y175_R178S]
1.95

In one line, give reported phosphorylation enrichment of the entry VRTSKYRGGGG [HBA1_Y141_L137R] .
0.676

Consider the sequence FPILNYKDIRK [CFAP221_Y798_M795I] and give its recorded phosphorylation enrichment.
0.666

Find the measured phosphorylation enrichment of GLAELYEYQKK [CKAP5_Y1854_K1857Q] and report it.
0.985

Given the sequence SAVVPYEPPEV [TP53_Y220_V216A] , write its reported phosphorylation enrichment.
1.21

Using the record for KICDWYQRQRP [KRT14_Y151_R148C] , state its measured phosphorylation enrichment.
0.9
